- tgt: KRAS G12C (Homo sapiens, UniProt P01116, G12C)
- Sequence (P01116 1-188 isoform P01116-2 G12C): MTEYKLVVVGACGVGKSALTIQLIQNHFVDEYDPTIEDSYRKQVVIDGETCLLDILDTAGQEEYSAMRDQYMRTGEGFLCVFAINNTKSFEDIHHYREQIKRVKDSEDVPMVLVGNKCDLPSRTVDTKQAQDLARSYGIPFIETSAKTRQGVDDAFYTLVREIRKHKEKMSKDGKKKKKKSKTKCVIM
- test method notes: Cellular KRAS:RAF Disruption Assay (NanoBRET), KRAS G12C
- condition info: HEK293 T cells co-expressing RAF1 and KRAS G12C, 24 hours; read-out: RAS::RAF binding via NanoBRET IC50, KRAS G12C
observable: pIC50
Answers are plain numbers, as −log10 of the molar value.

State the recorded pIC50 for every item in the following list.
1. C#Cc1c(F)ccc2cc(O)cc(-c3ccc4c(N5C[C@@H]6C[C@H]5C(=O)N6)nc(OC[C@]56CCC[C@H]5N(C)CCC6)nc4c3F)c12
2. C#Cc1c(F)ccc2cc(O)cc(-c3ncc4c(N5CCCOCC5)nc(OC[C@]56CCC[C@H]5N(C)CCC6)nc4c3F)c12
3. C#Cc1c(F)ccc2cc(O)cc(-c3ncc4c(N5CC6COC(C6)C5)nc(OC[C@@]56CCCN5C[C@H](F)C6)nc4c3F)c12 (stereo partly drawn)

# output
6.08
8.52
7.38
